Test system: plasma hormone levels
method: Pharmacodynamic determination in monkeys: plasma aldosterone and cortisol after ACTH stimulation
Type: in vivo, cynomolgus monkeys
test_context: P.O., 0.03 mpk, 0h, plasma
recorded_metric: Cortisol (ng/mL)
Dear colleague, please return just the value in ng/mL, with no unit written.

Query CCC(=O)N[C@@H]1CCOc2c(-c3ccc4c(ccc(=O)n4C)c3)cncc21 [Compound A09] on plasma hormone levels; Cortisol returned: 214.0

Query CCC(=O)N[C@@H]1CCOc2c(-c3ccc4c(c3)CCC(=O)N4C)cncc21 [Compound A02-P2] on plasma hormone levels; Cortisol returned: 269.0

Query [2H]C([2H])([2H])OC(=O)N[C@@H]1CCOc2c(-c3cc(F)c4c(ccc(=O)n4C)c3)cncc21 [Compound A50] on plasma hormone levels; Cortisol returned: 358.3

Query CCC(=O)N[C@@H]1CCCc2c(-c3cc(F)c4c(c3)COC(=O)N4C)cncc21 [Compound C44] on plasma hormone levels; Cortisol returned: 279.5

###

system_under_test: human CYP11B2 enzyme (Homo sapiens)
Construct: the ORF of human CYP11B1 or CYP11B2 were transfected into G402 cells
Sequence (P19099 25-503): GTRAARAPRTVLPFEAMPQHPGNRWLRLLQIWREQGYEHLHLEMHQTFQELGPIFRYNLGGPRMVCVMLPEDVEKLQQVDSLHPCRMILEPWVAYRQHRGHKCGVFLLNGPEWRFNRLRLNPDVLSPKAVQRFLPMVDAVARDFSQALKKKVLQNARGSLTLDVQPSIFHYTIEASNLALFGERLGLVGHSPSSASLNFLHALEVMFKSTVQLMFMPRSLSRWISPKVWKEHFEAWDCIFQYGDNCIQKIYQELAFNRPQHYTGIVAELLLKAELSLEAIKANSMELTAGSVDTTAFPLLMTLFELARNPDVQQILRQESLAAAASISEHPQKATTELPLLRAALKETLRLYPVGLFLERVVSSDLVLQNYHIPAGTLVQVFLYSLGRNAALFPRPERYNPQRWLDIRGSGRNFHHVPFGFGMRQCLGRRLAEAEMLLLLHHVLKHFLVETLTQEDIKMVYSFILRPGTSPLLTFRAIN
method: Enzyme inhibition activity assay in G402 cells stably expressing human CYP11B2 (aldosterone production from 11-DOC, LC/MS)
test_context: 1 µM 11-DOC, 16 hours, aldosterone detected
pIC50: −log10 of the molar value.
Lab note: anything with pIC50 at or over 8 counts as Fulfilled; the rest go in Not fulfilled.

Asked: In plain terms: is recorded pIC50 at least 8 for CN1C(=O)CCc2cc(-c3cncc4c3CCC[C@H]4NC(=O)N3CCC3)ccc21 ?
Given back: Not fulfilled

Asked: In plain terms: is recorded pIC50 at least 8 for [2H]C([2H])([2H])OC(=O)N[C@@H]1CCOc2c(-c3ccc4c(c3)OCC(=O)N4C)cncc21 ?
Given back: Not fulfilled

Asked: In plain terms: is recorded pIC50 at least 8 for [2H]C([2H])([2H])NC(=O)N[C@@H]1CCOc2c(-c3ccc4c(c3)cc(C#N)n4C)cncc21 ?
Given back: Fulfilled

Asked: In plain terms: is recorded pIC50 at least 8 for [2H]C([2H])([2H])OC(=O)N[C@@H]1CCOc2c(-c3ccc4c(c3)CCC(=O)N4C)cncc21 ?
Given back: Fulfilled

###

method: Pharmacokinetic determination in monkeys after gavage administration (P.O.)
Format: in vivo, Cynomolgus monkeys (Macaca fascicularis)
test_context: cynomolgus monkey, in vivo, po, 1 mg/kg, plasma
What Cmax was measured for each of the following?

Consider CCC(=O)N[C@@H]1CCOc2c(-c3ccc4c(c3)cc(C#N)n4C)cncc21 [Compound A10-P2] . Its measured Cmax is 3280 nM

Consider CCC(=O)N[C@@H]1CCOc2c(-c3ccc4c(c3)CCC(=O)N4C)cncc21 [Compound A02-P2] . Its measured Cmax is 1600 nM

###

method: Pharmacokinetic determination in monkeys after gavage administration (P.O.)
Assay type: in vivo, Cynomolgus monkeys (Macaca fascicularis)
test_context: male, cynomolgus monkey, po, 1 mg/kg, plasma
recorded_metric: half-life (min)
Dear colleague, please return just the value in min, with no unit written.

Consider [2H]C([2H])([2H])OC(=O)N[C@@H]1CCOc2c(-c3cc(F)c4c(ccc(=O)n4C)c3)cncc21 [Compound A50] . Its measured half-life is 630

###

method: in vivo
test_context: male, Sprague-Dawley, rat, plasma, po, 10 mg/kg
What Cmax was measured for each of the following?
Dear colleague, please return just the value in µM, with no unit written.

Consider CCC(=O)N[C@@H]1CCOc2c(-c3ccc4c(ccc(=O)n4C)c3)cncc21 [Compound A09] . Its measured Cmax is 52.1

Consider CCC(=O)N[C@@H]1CCCc2c(-c3ccc4c(c3)CCC(=O)N4C)cncc21 [Control Compound, reference compound] . Its measured Cmax is 11.4

Consider CCC(=O)N[C@@H]1CCCc2c(-c3cc(C)c4c(ccc(=O)n4C)c3)cncc21 [Compound C43] . Its measured Cmax is 47.9
